Assay: GAPDH versus PEG-3 reporter suppression – cell-based, luminescence, counter-screen for PEG-3 promoter inhibitor project, SAR follow-up (AID 651551)
Details: HeLa PEG-Prom / GAPDH luciferase reporter, 6 or 24 h, run 1, 6 h; at 99 µM (top of the series)
Provide the recorded inhibition % (higher = more inhibition) for the entries that follow.
Output spec: scalar in %, unitless text.

// returns reported inhibition % (higher = more inhibition) for input COc1ccc(-n2nc(C(=O)NCC(=O)Nc3cccc(OC)c3)c3ccccc3c2=O)cc1
31.1

Subsequent entry: COc1ccc(-n2nc(C(=O)NCC(=O)Nc3cc(OC)c(OC)c(OC)c3)c3ccccc3c2=O)cc1OC
29.5

Subsequent entry: CCCn1nc(C(=O)Nc2nc3ccccc3s2)c2ccccc2c1=O
42.8

Subsequent entry: Cc1cc(NC(=O)c2ccccc2C(F)(F)F)n(-c2nc3ccccc3[nH]2)n1
89.3

###

Assay: GAPDH versus PEG-3 reporter suppression – cell-based, luminescence, counter-screen for PEG-3 promoter inhibitor project, SAR follow-up (AID 651551)
Details: HeLa PEG-Prom / GAPDH luciferase reporter, 6 or 24 h, run 1, 6 h; at 99 µM (top of the series)
Provide the recorded inhibition % (higher = more inhibition) for the entries that follow.
Output spec: scalar in %, unitless text.

// returns reported inhibition % (higher = more inhibition) for input Cc1cc(NC(=O)c2cccc(C)c2C)n(-c2nc3ccccc3[nH]2)n1
13.7

Subsequent entry: COc1ccc(Cl)cc1Nc1nc(-c2sc(NC(=O)c3ccccc3)nc2C)cs1
44.4

Subsequent entry: COc1ccc(-n2nc(C(=O)NCC(=O)Nc3ccc(OC)c(OC)c3)c3ccccc3c2=O)cc1
69.4

Subsequent entry: COc1ccccc1Nc1nc(-c2sc(NC(=O)c3ccco3)nc2C)cs1
51

Subsequent entry: Cc1nc(NC(=O)c2ccccc2)sc1-c1csc(Nc2ccccc2)n1
81.9

Subsequent entry: O=C(Nc1nccs1)c1nn(-c2ccccc2)c(=O)c2ccccc12
28

Subsequent entry: COCCCNC(=O)c1ccc(Cn2c(=O)c3ccccc3n(Cc3ccccc3C#N)c2=O)cc1
25.3

Subsequent entry: Cc1cc(NC(=O)c2ccccc2)n(-c2nc3ccccc3n2C)n1
28.6

Subsequent entry: CCn1cc(C(=O)NCc2ccco2)c(=O)c2cc(S(=O)(=O)N3CCCC3)ccc21
37.8

Subsequent entry: CCn1nc(C(=O)Nc2nc(-c3ccccn3)cs2)c2ccccc2c1=O
38.3
